System: RXF 393 renal
Assay: NCI tumour cell line growth inhibition, 48 h
The label depends only on TGI: Yes if it is at least 30 µM, No if it is smaller.

| Molecule | Assigned Class |
| --- | --- |
| O=P(O)(O)OCC1OC(n2cnc3c(NCc4ccco4)ncnc32)C(O)C1O (stereo not given) | No |
| COC1=CC(=O)C2C(C1=O)[C@@H]1c3ccccc3OC(C)(C)[C@H]21 (stereo not given in full) | No |
| O=C1NC(=O)[C@@]2(CC[C@@H](O)C2)c2ccncc21 | Yes |
| CCN(CC)CCC(=O)OC1C(C)=CC(C)C(=O)CC(C(C)CC2CCC(O)C(OC)C2)OC(=O)C2CCCCN2C(=O)C(=O)[C@@]2(O)OC(CCC2C)CC(OC)\C(C)=C/C=C/C=C/C(C)CC(C)C(=O)C1OC (stereo not given in full) | No |
| C[C@@H](NC(=O)[C@@H]1C[C@]1(C)CO)c1cccc2ccccc12 | Yes |

Enquiry: Does COC1=CC(=O)C(Br)=CC1=O have a reported TGI of at least 30 µM?
Return: Yes

Enquiry: Does COc1ccc(N2CN(C)CSC2=S)cc1 have a reported TGI of at least 30 µM?
Return: Yes

Enquiry: Does Nc1ncn(C2OC(COP(=O)(O)O)C(O)C2O)c(=O)n1 (stereo not given) have a reported TGI of at least 30 µM?
Return: Yes

====

Test system: DU-145 prostate
Assay: NCI tumour cell line growth inhibition, 48 h
Metric Name: TGI (µM)
Give bare numbers, in µM.

The cases that follow already have their TGI on record.
| Molecule | TGI / µM |
| --- | --- |
| CC(C)(C)c1cc(C(=O)C2Cc3ccccc3C(=O)O2)cc(C(C)(C)C)c1O (centres undefined) | 28.3 |
| CCCCCCCCCCCC[N+](C)(C)Cc1ccccc1 | 13.6 |
| C/C(=N/NC(=S)Nc1cccc(Cl)c1)c1ccccn1 | 4.98 |
| C=C(C)[C@@H]1C/C=C(/CO)CC[C@H]2O[C@]2(C)CC/C=C(\C)CC1 | 60.5 |
| COc1cc(OC)c(/C=C/C(=O)c2ccc(Nc3ncnc4ccccc34)cc2)c(OC)c1 | 3.42 |

Give TGI for each of the items listed below.
1. Nc1ncnc2c1c(-c1ccc(Oc3ccccc3)cc1)nn2C[C@H]1SSC[C@@H]1O
2. CCC#CC[C@H](O)C/C=C1/C(=O)C=C[C@@H]1C/C=C\CCCC(=O)OC
3. O=C(Nc1ccc2ncnc(Nc3ccc(Oc4cccc(F)c4)c(Cl)c3)c2c1)c1ccc(CN2CCOCC2)cc1
4. CCCCC(=C=C(C)CO)C1CCCN1C(=O)OC(C)(C)C (centres undefined)

Return:
1. 10.6
2. 7.26
3. 15.8
4. 34.1

====

System: LOX IMVI melanoma
Experiment: NCI tumour cell line growth inhibition, 48 h
Metric Name: TGI (µM)
Numbers only, in µM.

Give TGI for each of the items listed below.
1. O=C1NCN(c2ccccc2)C12CCN(CCCC(c1ccc(F)cc1)c1ccc(F)cc1)CC2
2. COc1ccc(C(=O)c2c(-c3ccccc3NC(=O)C(F)(F)F)[nH]c3ccccc23)cc1
3. C[C@]12C(=O)C=CCC1=CC[C@@H]1[C@@H]2[C@H]2CC3(O)C(=O)O[C@@]4(C)[C@H]5C[C@@]6(C)[C@@H]7[C@@]2(O)[C@]1(OC[C@H]6C(=O)O5)O[C@]734 (some centres not stated)

Return:
1: 3.32; 2: 16.1; 3: 75.5

Give TGI for each of the items listed below.
1. CCN(CC)CCC(=O)OC1C(C)=CC(C)C(=O)CC(C(C)CC2CCC(O)C(OC)C2)OC(=O)C2CCCCN2C(=O)C(=O)[C@@]2(O)OC(CCC2C)CC(OC)\C(C)=C/C=C/C=C/C(C)CC(C)C(=O)C1OC (some centres not stated)
2. O=C(NC12CC3CC(CC(C3)C1)C2)C(=O)c1c[nH]c2ccc(Br)cc12

Return:
1: 19.2; 2: 18.4
